tested_system: FRMPD2_3, Q68DX3
Sequence (Q68DX3 1073-1166): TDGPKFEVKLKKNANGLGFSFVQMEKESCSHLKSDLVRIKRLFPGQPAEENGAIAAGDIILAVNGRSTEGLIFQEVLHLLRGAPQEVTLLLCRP
test_details: holdup assay
Design: key: below the threshold = too weak to quantify, mostly under pKd 3.1 to 4
conditions_used: plain residues with an end cap or a label only (N-terminal biotin on a linker: ado-ado)
measure: pKd

Below: 6 binders and their reported pKd.
HYPASPDSWV [CTNND2, Q9UQB3]	below the threshold
MLPANYVEAI [NEB, P20929]	below the threshold
RDYTQSSSSL [GRM5, P41594]	below the threshold
THHRKIHTRV [ZNF599, Q96NL3]	3.53
KPDKQEEFYA [SDC3, O75056]	below the threshold
QKASRNESTF [POLR1D, P0DPB6]	below the threshold

Sure, the documented pKd for QLKSGRDSTV [TMEM178A, Q8NBL3] is below the threshold

Query SAGADSETHC [SLCO1B1, Q9Y6L6] yields pKd of below the threshold

The reported pKd of the binder SKQFDKNAYV [CLDN10, P78369] was below the threshold

Field pKd (entry GTMFLRETSL [GUCY1A2, P33402] ) reads below the threshold
